Assay: in vivo
Details: rhesus monkey, inhaled or intranasal, 6 mg, Cmax
Description: Blood was obtained at 10, 20, 30, 60, 120, 240, and 480 minutes post-administration from the monkeys administered the solid dosage form. For the monkeys treated with the nasal spray, blood was obtained 5, 10, 20, 30, 60, 120, 240, and 480 minutes post-treatment. Blood was obtained at 5, 10, 20, 30, 60, 120, and 240 minutes post-administration. Administered dose was 6 mg/animal. […] Blood was obtained at 5, 10, 20, 30, 60, 120, and 240 minutes post-administration. Administered dose was 6 mg/animal. […]
Reported endpoint: Cmax (ng/mL)

[[record]]
molecule = "CNS(=O)(=O)Cc1ccc2[nH]cc(CCN(C)C)c2c1 [sumatriptan succinate]"
reported_endpoint = "Cmax"
recorded_value = 696

